Test system: MS2 coat protein
Assay: apparent KD of MS2 coat protein; designed switch direction (-1 OFF switch, 1 ON switch): -1; higher = weaker reporter binding
Settings: Eterna round: R95; input ligand: microRNA oligo, concentration not stated
Criterion met means recorded apparent KD of MS2 coat protein is 0.04 µM or above; Criterion not met means it is below 0.04 µM.

# Polymer Sequence, Discrete Label
rows = [
    ("GGUUAUUGCAAGGAUAUGCUUUUUUUUUAUUUUGCAGAAGGUGCAACAUGAGGAUCACCCAUGUUGGAGGGUUU [JR_E6_Sub023] (puzzle: Exclusion 6)", "Criterion not met"),
    ("AAUAACAGAGGAUAUACUGUUUUAUGUGUUUGUUAUUUUGAACAUGAGGAUCACCCAUGUAGAAGGCUGAUUAA [JMF 50] (puzzle: Exclusion 2)", "Criterion not met"),
    ("UAUUAAACAUAGGAUAUCGAAAAUAUCAUUUAACGAGAAGGAUGAACAUGAGGAUCACCCAUGUGGUAUCAUGG [Mat - Exclusion 6 - JL Mod - D15] (puzzle: Exclusion 6)", "Criterion met"),
    ("AAUACACAUGAGGAUCACCCAUGUUAGGAUAUUCGCGGGAAAGCUGUCAAAACGCCGAGGAGAAGGAACAGGAA [Excls1-X] (puzzle: Exclusion 1)", "Criterion not met"),
    ("UAGAAUCGAGGAUAUACAUGAGGAUCACCCAUGUGUGGCCACACGGUGUGGUCGUCAGGUAGAAGGCGAUUACA [Exclusion 3 - Mod of Jieux's Gilly Gone Silly 23 v.3] (puzzle: Exclusion 3)", "Criterion not met"),
]
